# inhibition at 100 µM per record follows
Target: human AChE (Homo sapiens)
Test: AChE inhibition, modified Ellman spectrophotometric method
Format: biochemical
Details: read-out: human AChE inhibition %

Molecule	Measure name	Observed
Clc1cccc(N2N=C(c3ccsc3)CC2c2ccc(N3CCOCC3)cc2)c1 (stereo not shown)	inhibition at 100 µM	89.5%
Fc1ccc(N2N=C(c3ccsc3)CC2c2ccc(N3CCOCC3)cc2)cc1 (stereo not shown)	inhibition at 100 µM	45.4%
c1ccc(N2N=C(c3ccsc3)CC2c2ccc(N3CCOCC3)cc2)cc1 (stereo not shown)	inhibition at 100 µM	88.6%
N#Cc1ccc(N2N=C(c3ccsc3)CC2c2ccc(N3CCOCC3)cc2)cc1 (stereo not shown)	inhibition at 100 µM	47.6%
O=[N+]([O-])c1cccc(N2N=C(c3ccsc3)CC2c2ccc(N3CCOCC3)cc2)c1 (stereo not shown)	inhibition at 100 µM	91.7%
O=C(C=Cc1ccc(N2CCOCC2)cc1)c1ccsc1	inhibition at 100 µM	41.1%
Brc1ccc(N2N=C(c3ccsc3)CC2c2ccc(N3CCOCC3)cc2)cc1 (stereo not shown)	inhibition at 100 µM	20.9%
Brc1cccc(N2N=C(c3ccsc3)CC2c2ccc(N3CCOCC3)cc2)c1 (stereo not shown)	inhibition at 100 µM	30.3%

Prompt: Item under review: Clc1ccc(N2N=C(c3ccsc3)CC2c2ccc(N3CCOCC3)cc2)cc1 (stereo not shown) . Reported inhibition at 100 µM?
Response: 86.6%

Prompt: Consider next the molecule CS(=O)(=O)c1ccc(N2N=C(c3ccsc3)CC2c2ccc(N3CCOCC3)cc2)cc1 (stereo not shown) in the same way.
Response: 23.1%

###

Biological target: human AChE (Homo sapiens)
Test: AChE inhibition, modified Ellman spectrophotometric method
Assay type: biochemical
Settings: read-out: human AChE inhibition %
Would you please tag the item label 1 when its inhibition at 1000 µM is 70% or above, and label 0 when it is below?

Completed entries (count: 4):
Molecule	Label
CS(=O)(=O)c1ccc(N2N=C(c3ccsc3)CC2c2ccc(N3CCOCC3)cc2)cc1 (stereo not shown)	label 0
Clc1ccc(N2N=C(c3ccsc3)CC2c2ccc(N3CCOCC3)cc2)cc1 (stereo not shown)	label 1
O=C(C=Cc1ccc(N2CCOCC2)cc1)c1ccsc1	label 1
Brc1ccc(N2N=C(c3ccsc3)CC2c2ccc(N3CCOCC3)cc2)cc1 (stereo not shown)	label 0

Prompt: Does the reported inhibition at 1000 µM for O=[N+]([O-])c1cccc(N2N=C(c3ccsc3)CC2c2ccc(N3CCOCC3)cc2)c1 (stereo not shown) fall at or above the 70% mark?
Response: label 1

Prompt: # iterate: N#Cc1ccc(N2N=C(c3ccsc3)CC2c2ccc(N3CCOCC3)cc2)cc1 (stereo not shown)
Response: label 1

Prompt: Entry Clc1cccc(N2N=C(c3ccsc3)CC2c2ccc(N3CCOCC3)cc2)c1 (stereo not shown) please
Response: label 1

Prompt: Okay, and COc1ccc(N2N=C(c3ccsc3)CC2c2ccc(N3CCOCC3)cc2)cc1 (stereo not shown) ?
Response: label 1

Prompt: Try this molecule next: c1ccc(N2N=C(c3ccsc3)CC2c2ccc(N3CCOCC3)cc2)cc1 (stereo not shown)
Response: label 1

Prompt: Cool, now Cc1ccc(N2N=C(c3ccsc3)CC2c2ccc(N3CCOCC3)cc2)cc1 (stereo not shown)
Response: label 1

Prompt: Follow-up entry: Brc1cccc(N2N=C(c3ccsc3)CC2c2ccc(N3CCOCC3)cc2)c1 (stereo not shown)
Response: label 0

###

Target: UniProtKB P06276
Assay: biochemical
Conditions: read-out: human BuChE inhibition%
inhibition at 1000 µM reference
The reply should be a number in %, with the unit left off.

Field: example entries. Status: answers known.
Molecule	Scale unit	inhibition at 1000 µM
O=C(C=Cc1ccc(N2CCOCC2)cc1)c1ccsc1	%	46.6
Fc1ccc(N2N=C(c3ccsc3)CC2c2ccc(N3CCOCC3)cc2)cc1 (stereo not shown)	%	31.5
Brc1ccc(N2N=C(c3ccsc3)CC2c2ccc(N3CCOCC3)cc2)cc1 (stereo not shown)	%	40.8
Clc1cccc(N2N=C(c3ccsc3)CC2c2ccc(N3CCOCC3)cc2)c1 (stereo not shown)	%	34.3
Cc1ccc(N2N=C(c3ccsc3)CC2c2ccc(N3CCOCC3)cc2)cc1 (stereo not shown)	%	29.3
Fc1cccc(N2N=C(c3ccsc3)CC2c2ccc(N3CCOCC3)cc2)c1 (stereo not shown)	%	36.2
O=[N+]([O-])c1cccc(N2N=C(c3ccsc3)CC2c2ccc(N3CCOCC3)cc2)c1 (stereo not shown)	%	30.5
COc1ccc(N2N=C(c3ccsc3)CC2c2ccc(N3CCOCC3)cc2)cc1 (stereo not shown)	%	33.1

Prompt: Given the entry N#Cc1ccc(N2N=C(c3ccsc3)CC2c2ccc(N3CCOCC3)cc2)cc1 (stereo not shown) , what inhibition at 1000 µM was observed with UniProtKB P06276?
Response: 38.9

Prompt: Now try c1ccc(N2N=C(c3ccsc3)CC2c2ccc(N3CCOCC3)cc2)cc1 (stereo not shown) .
Response: 31.1

Prompt: What do you get for Clc1ccc(N2N=C(c3ccsc3)CC2c2ccc(N3CCOCC3)cc2)cc1 (stereo not shown) ?
Response: 25

Prompt: Would you kindly repeat that for CS(=O)(=O)c1ccc(N2N=C(c3ccsc3)CC2c2ccc(N3CCOCC3)cc2)cc1 (stereo not shown) ?
Response: 26.4

Prompt: Can you check Brc1cccc(N2N=C(c3ccsc3)CC2c2ccc(N3CCOCC3)cc2)c1 (stereo not shown) next?
Response: 29

###

Target: human AChE (Homo sapiens, UniProt P22303)
Sequence (P22303 32-614): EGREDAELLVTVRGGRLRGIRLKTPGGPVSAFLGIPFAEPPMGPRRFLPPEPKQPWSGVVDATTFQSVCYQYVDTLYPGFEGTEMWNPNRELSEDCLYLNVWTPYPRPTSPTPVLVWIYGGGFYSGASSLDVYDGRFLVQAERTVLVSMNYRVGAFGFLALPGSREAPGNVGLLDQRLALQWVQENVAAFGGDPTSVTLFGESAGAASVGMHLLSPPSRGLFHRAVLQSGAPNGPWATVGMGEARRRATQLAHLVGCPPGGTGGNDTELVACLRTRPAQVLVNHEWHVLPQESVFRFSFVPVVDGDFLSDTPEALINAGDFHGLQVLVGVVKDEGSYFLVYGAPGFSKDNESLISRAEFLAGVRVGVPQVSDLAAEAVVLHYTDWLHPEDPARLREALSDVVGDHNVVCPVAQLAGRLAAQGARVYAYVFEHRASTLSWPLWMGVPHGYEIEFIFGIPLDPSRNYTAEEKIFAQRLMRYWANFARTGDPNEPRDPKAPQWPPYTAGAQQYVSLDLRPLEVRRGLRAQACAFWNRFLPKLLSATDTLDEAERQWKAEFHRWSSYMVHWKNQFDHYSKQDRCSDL
Experiment: AChE inhibition, modified Ellman spectrophotometric method
Type: biochemical
Conditions: read-out: human AChE inhibition %
Listed here are compounds together with their documented inhibition at 0.1 µM.
Report only the number, with the unit % understood.

As a guide, the following entries are already answered.
Compound	Scale unit	inhibition at 0.1 µM
c1ccc(N2N=C(c3ccsc3)CC2c2ccc(N3CCOCC3)cc2)cc1 (stereo not shown) [Compound 2a]	%	49.7
Clc1ccc(N2N=C(c3ccsc3)CC2c2ccc(N3CCOCC3)cc2)cc1 (stereo not shown) [Compound 2g]	%	47.9
Clc1cccc(N2N=C(c3ccsc3)CC2c2ccc(N3CCOCC3)cc2)c1 (stereo not shown) [Compound 2j]	%	60.8

Switching to the query record.
Prompt: Returns the measured inhibition at 0.1 µM for the input compound. Input: O=[N+]([O-])c1cccc(N2N=C(c3ccsc3)CC2c2ccc(N3CCOCC3)cc2)c1 (stereo not shown) [Compound 2l]
Response: 64.6

###

Below: a set of entries, each annotated with reported IC50.
Target: human BuChE (Homo sapiens, UniProt P06276)
Sequence (P06276 29-602): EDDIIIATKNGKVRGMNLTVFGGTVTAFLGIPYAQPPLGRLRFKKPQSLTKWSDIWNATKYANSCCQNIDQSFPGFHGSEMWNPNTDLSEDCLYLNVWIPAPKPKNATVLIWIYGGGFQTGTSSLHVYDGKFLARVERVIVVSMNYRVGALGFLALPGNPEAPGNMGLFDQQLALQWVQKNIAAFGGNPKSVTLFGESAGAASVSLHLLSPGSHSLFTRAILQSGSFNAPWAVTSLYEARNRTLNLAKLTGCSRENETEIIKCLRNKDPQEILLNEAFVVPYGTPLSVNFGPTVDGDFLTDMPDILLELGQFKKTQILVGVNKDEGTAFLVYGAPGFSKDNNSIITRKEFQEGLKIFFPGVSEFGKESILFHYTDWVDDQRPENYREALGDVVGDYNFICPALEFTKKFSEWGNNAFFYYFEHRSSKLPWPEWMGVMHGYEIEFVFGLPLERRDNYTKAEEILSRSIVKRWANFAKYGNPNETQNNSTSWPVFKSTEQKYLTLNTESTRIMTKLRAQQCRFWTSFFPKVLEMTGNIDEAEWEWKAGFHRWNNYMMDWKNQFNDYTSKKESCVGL

Compound	Observed
O=[N+]([O-])c1cccc(N2N=C(c3ccsc3)CC2c2ccc(N3CCOCC3)cc2)c1 (centres unmarked)	> 1 mM
Fc1cccc(N2N=C(c3ccsc3)CC2c2ccc(N3CCOCC3)cc2)c1 (centres unmarked)	> 1 mM
c1ccc(N2N=C(c3ccsc3)CC2c2ccc(N3CCOCC3)cc2)cc1 (centres unmarked)	> 1 mM
COc1ccc(N2N=C(c3ccsc3)CC2c2ccc(N3CCOCC3)cc2)cc1 (centres unmarked)	> 1 mM
CS(=O)(=O)c1ccc(N2N=C(c3ccsc3)CC2c2ccc(N3CCOCC3)cc2)cc1 (centres unmarked)	> 1 mM

Prompt: Data request, read-out IC50, for Fc1ccc(N2N=C(c3ccsc3)CC2c2ccc(N3CCOCC3)cc2)cc1 (centres unmarked)
Response: > 1 mM

Prompt: Moving on to the next compound: `O=C(C=Cc1ccc(N2CCOCC2)cc1)c1ccsc1`
Response: > 1 mM

Prompt: What do you have for Clc1ccc(N2N=C(c3ccsc3)CC2c2ccc(N3CCOCC3)cc2)cc1 (centres unmarked) ?
Response: > 1 mM

###

Parameter inhibition at 100 µM: see the listing below.
Target: human AChE (Homo sapiens, UniProt P22303)
Experiment: AChE inhibition, modified Ellman spectrophotometric method
Assay type: biochemical
Conditions: read-out: human AChE inhibition %
Give a bare numeral; the unit % is implied.

Below are worked cases with known answers.
Molecule	inhibition at 100 µM / %
COc1ccc(N2N=C(c3ccsc3)CC2c2ccc(N3CCOCC3)cc2)cc1 (stereo not drawn)	44.2
Cc1ccc(N2N=C(c3ccsc3)CC2c2ccc(N3CCOCC3)cc2)cc1 (stereo not drawn)	38.7

Prompt: Reported inhibition at 100 µM for human AChE (Homo sapiens, UniProt P22303), given Fc1cccc(N2N=C(c3ccsc3)CC2c2ccc(N3CCOCC3)cc2)c1 (stereo not drawn) ?
Response: 37.6
